target: Somatostatin receptor type 4 (Rattus norvegicus)
Sequence (P30937 whole entry): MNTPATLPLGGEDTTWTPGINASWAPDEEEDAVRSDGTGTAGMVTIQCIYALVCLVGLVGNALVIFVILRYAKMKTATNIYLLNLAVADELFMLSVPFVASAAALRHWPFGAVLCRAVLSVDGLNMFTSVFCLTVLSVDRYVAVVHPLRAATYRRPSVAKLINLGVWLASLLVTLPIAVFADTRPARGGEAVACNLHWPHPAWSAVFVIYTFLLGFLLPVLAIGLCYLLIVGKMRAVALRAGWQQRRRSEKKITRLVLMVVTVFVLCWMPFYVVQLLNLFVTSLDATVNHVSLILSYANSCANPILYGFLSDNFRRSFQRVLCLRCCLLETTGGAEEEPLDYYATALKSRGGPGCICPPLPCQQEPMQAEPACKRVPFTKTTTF
Where a SMILES comes first, the peptide text is derived from it. Bridges are numbered along the chain shown (N, C = ends). [ ]: non-standard residue; d: D form. The star is where a group is joined. ξ: configuration not given here. Phe(4-Cl) = N[C@@H](Cc1ccc(Cl)cc1)C(=O)O; dThr(3ξ) = CC(O)[C@@H](N)C(=O)O; ξF = NC(Cc1ccccc1)C(=O)O; Abu = CC[C@H](N)C(=O)O; X2 = CC(O)[C@H](CO)N*; Ahx = NCCCCCC(=O)O; Bn = c1ccc(C*)cc1; ξC = NC(CS)C(=O)O
Exercise: for every item that follows, state its recorded Ki.

// query Item under review: CC[C@H](NC(=O)[C@@H](N)Cc1ccc(Cl)cc1)C(=O)N[C@@H](Cc1ccc(O)cc1)C(=O)N[C@H](Cc1c[nH]c2ccccc12)C(=O)N[C@@H](CCCCN)C(=O)N[C@H](C(=O)N[C@@H](C)C(=O)N[C@H](Cc1ccccc1)C(N)=O)C(C)C [BIM 23067] (H-[Phe(4-Cl)][Abu]Y[dW]KVA[dF]-NH2) . Reported Ki?
// result 15 nM

// query Given C[C@@H](O)[C@H](NC(=O)[C@H](Cc1ccccc1)NC(=O)[C@@H](NC(=O)[C@H](CCCCN)NC(=O)[C@@H](Cc1c[nH]c2ccccc12)NC(=O)[C@H](Cc1ccc(O)cc1)NC(=O)[C@H](Cc1ccc(Cl)cc1)NC(=O)[C@H](N)Cc1ccccc1)[C@@H](C)O)C(N)=O [BIM 23068] (H-[dF][Phe(4-Cl)]Y[dW]KTFT-NH2) , state its recorded Ki.
// result 1.1 nM

// query What measured Ki goes with CC(C)[C@H](NC(=O)[C@H](CCCCN)NC(=O)[C@@H](Cc1c[nH]c2ccccc12)NC(=O)[C@H](Cc1ccc(O)cc1)NC(=O)[C@H](Cc1ccc(Cl)cc1)NC(=O)[C@@H](N)Cc1ccccc1)C(=O)N[C@@H](Cc1ccccc1)C(=O)N[C@H](C)C(N)=O [BIM 23064] (H-F[Phe(4-Cl)]Y[dW]KVF[dA]-NH2) ?
// result 17 nM

// query What does the data say about its Ki? Entry: C[C@@H](OCc1ccccc1)[C@@H]1NC(=O)[C@H](CCCCN)NC(=O)[C@@H](Cc2c[nH]c3ccccc23)NC(=O)[C@H](Cc2ccccc2)NC(=O)CCCCCNC1=O [c[Ahx-Phe-D-Trp-Lys-Thr(Bzl)]] (cyclo([Ahx]F[dW]KT(Bn)))
// result 34 nM

// query Fill in: Ki of CC(C)[C@H](NC(=O)[C@H](CCCCN)NC(=O)[C@@H](Cc1c[nH]c2ccccc12)NC(=O)[C@H](Cc1ccc(O)cc1)NC(=O)[C@H](Cc1ccccc1)NC(=O)[C@@H](N)Cc1ccccc1)C(=O)N[C@@H](Cc1ccccc1)C(=O)N[C@H](C(N)=O)[C@@H](C)O [BIM-23058] (H-FFY[dW]KVFT-NH2) is ___
// result 1.2 nM

// query What does the record list as Ki for CC(O)[C@@H]1NC(=O)[C@@H](CCCCN)NC(=O)[C@H](Cc2c[nH]c3ccccc23)NC(=O)[C@@H](Cc2ccccc2)NC(=O)[C@H](Cc2ccccc2)NC(=O)[C@@H](CC(N)=O)NC(=O)[C@H](CCCCN)NC(=O)[C@@H](NC(=O)CNC(=O)[C@H](C)N)CSSC[C@H](C(=O)O)NC(=O)[C@@H](CO)NC(=O)[C@H]([C@@H](C)O)NC(=O)[C@@H](Cc2ccccc2)NC1=O (some centres not stated) ?
// result 0.002 nM

// query Give its Ki value. Item: CC(O)[C@H](CO)NC(=O)[C@@H]1CSSCC(NC(=O)C(N)Cc2ccccc2)C(=O)N[C@H](Cc2ccccc2)C(=O)N[C@H](Cc2c[nH]c3ccccc23)C(=O)N[C@H](CCCCN)C(=O)N[C@H](C(C)O)C(=O)N1 (some centres not stated) (H-[ξF][ξC][dF][dW][dK][dThr(3ξ)]C-X2; disulfide 2-7)
// result 0.57 nM
